src = the RNAGym collection of RNA variant scans (doi:10.7554/elife.80360)

B1: HDV Ribozyme (parent)
chain: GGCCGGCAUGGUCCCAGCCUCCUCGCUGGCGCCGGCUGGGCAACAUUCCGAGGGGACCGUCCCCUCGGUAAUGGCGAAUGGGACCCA

Variants of: B1
Assay: self-cleavage, relative activity (ratio to wild type); higher = more cleavage; co-transcriptional
Classification by self-cleavage follows these ranges: bottom end: < 0.2; midrange: ≥ 0.2 and < 0.6; top end: ≥ 0.6

C19A C32A
bottom end
C4G C44U
bottom end
G6A G53A
top end
C4G G11U
bottom end
C7U A87U
top end
G55U G80C
bottom end
C64U C66A
top end
G11C C66G
midrange
G29A G59A
bottom end
U23G C61G
top end

Prompt: The entry to classify is G52U C62A ; which class holds it?
Completion: top end

Prompt: The entry to classify is C19U U47G ; which class holds it?
Completion: bottom end

Prompt: The entry to classify is A8U C33G ; which class holds it?
Completion: bottom end

Prompt: The entry to classify is G31C G35C ; which class holds it?
Completion: bottom end

Prompt: The entry to classify is C14G C58G ; which class holds it?
Completion: top end

Prompt: The entry to classify is G39A C84G ; which class holds it?
Completion: bottom end

Prompt: The entry to classify is U46G G52U ; which class holds it?
Completion: midrange

Prompt: The entry to classify is G25A A45U ; which class holds it?
Completion: bottom end

Prompt: The entry to classify is A51C C86U ; which class holds it?
Completion: top end

Prompt: The entry to classify is U9G ; which class holds it?
Completion: top end

Prompt: The entry to classify is C41G C44U ; which class holds it?
Completion: midrange

Prompt: The entry to classify is G35U C49G ; which class holds it?
Completion: midrange

Prompt: The entry to classify is C19G C58G ; which class holds it?
Completion: bottom end

Prompt: The entry to classify is C7A C49G ; which class holds it?
Completion: midrange

Prompt: The entry to classify is G50A A71G ; which class holds it?
Completion: top end

Prompt: The entry to classify is C24U C33G ; which class holds it?
Completion: bottom end

Prompt: The entry to classify is C21U G76A ; which class holds it?
Completion: midrange

Prompt: The entry to classify is A45G A78U ; which class holds it?
Completion: midrange
